assay text: Powder dissolution, USP/NF paddle method with HPLC analysis
Type: physicochemical
experimental setup: 1 min; 500 mg in 900 mL water, 37 °C, 75 rpm; replicate #1; trihydrate
measurement type: Amoxicillin released in solution #1 (%)

>>> experimental_value("CC1(C)S[C@@H]2[C@H](NC(=O)[C@H](N)c3ccc(O)cc3)C(=O)N2[C@H]1C(=O)O.O.O.O [entry 2, amoxicillin trihydrate]")
61.68
>>> experimental_value("CC1(C)S[C@@H]2[C@H](NC(=O)[C@H](N)c3ccc(O)cc3)C(=O)N2[C@H]1C(=O)O.O.O.O [entry 1, amoxicillin trihydrate]")
84.65
>>> experimental_value("CC1(C)S[C@@H]2[C@H](NC(=O)[C@H](N)c3ccc(O)cc3)C(=O)N2[C@H]1C(=O)O.O.O.O [entry 5, amoxicillin trihydrate]")
58.56
